System: Staph. aureus 285
Test: Minimum bacteriostatic inhibitory concentration, Agar dilution method
Type: cell-based
Minimum bacteriostatic inhibitory concentration by entry:
Provide only the numeric value, understood in micrograms per milliliter.

compound: CNC(CC(C)C)C(=O)NC1C(=O)NC(CC(N)=O)C(=O)NC2C(=O)NC3C(=O)NC(C(=O)NC(C(=O)O)c4cc(O)cc(O)c4-c4cc3ccc4O)C(OC3CC(C)(N)C(=O)C(C)O3)c3ccc(c(Cl)c3)Oc3cc2cc(c3O)Oc2ccc(cc2Cl)C1O (stereo not drawn)
numeric_result: 0.2
//
compound: CC1OC(OC2c3ccc(c(Cl)c3)Oc3cc4cc(c3OC3OC(CO)C(O)C(O)C3O)Oc3ccc(cc3Cl)C(O)C(N)C(=O)NC(CC(N)=O)C(=O)NC4C(=O)NC3C(=O)NC2C(=O)NC(C(=O)O)c2cc(O)cc(O)c2-c2cc3ccc2O)CC(C)(N)C1=O (stereo not drawn)
numeric_result: 6

Now for the compound whose Minimum bacteriostatic inhibitory concentration we want.
Which Minimum bacteriostatic inhibitory concentration is listed for CC(C)CC(N)C(=O)NC1C(=O)NC(CC(N)=O)C(=O)NC2C(=O)NC3C(=O)NC(C(=O)NC(C(=O)O)c4cc(O)cc(O)c4-c4cc3ccc4O)C(OC3CC(C)(N)C(=O)C(C)O3)c3ccc(c(Cl)c3)Oc3cc2cc(c3O)Oc2ccc(cc2Cl)C1O (stereo not drawn) ?
0.2

----------
Test system: Staph. aureus 285
Experiment: Minimum bacteriostatic inhibitory concentration, Agar dilution method
Type: cell-based
quantity_measured: Minimum bacteriostatic inhibitory concentration (micrograms per milliliter)
Kindly provide the numeric value in micrograms per milliliter only, without the unit symbol.

Sample records with Minimum bacteriostatic inhibitory concentration:
compound: CNC(CC(C)C)C(=O)NC1C(=O)NC(CC(N)=O)C(=O)NC2C(=O)NC3C(=O)NC(C(=O)NC(C(=O)O)c4cc(O)cc(O)c4-c4cc3ccc4O)C(OC3CC4(C)NC(=O)NC4(O)C(C)O3)c3ccc(c(Cl)c3)Oc3cc2cc(c3OC2OC(CO)C(O)C(O)C2O)Oc2ccc(cc2Cl)C1O (stereo not drawn)
numeric_result: 1.5

compound: CC(C)CC(N)C(=O)NC1C(=O)NC(CC(N)=O)C(=O)NC2C(=O)NC3C(=O)NC(C(=O)NC(C(=O)O)c4cc(O)cc(O)c4-c4cc3ccc4O)C(OC3CC(C)(N)C(=O)C(C)O3)c3ccc(c(Cl)c3)Oc3cc2cc(c3OC2OC(CO)C(O)C(O)C2O)Oc2ccc(cc2Cl)C1O (stereo not drawn)
numeric_result: 0.1

Let us examine a further case.
Requested read-out: Minimum bacteriostatic inhibitory concentration. Entry: CC(C)C[C@H](C(=O)N[C@H]1C(=O)NC(CC(N)=O)C(=O)N[C@H]2C(=O)N[C@H]3C(=O)N[C@H](C(=O)N[C@@H](C(=O)O)c4cc(O)cc(O)c4-c4cc3ccc4O)[C@H](O[C@H]3C[C@](C)(N)C(=O)[C@H](C)O3)c3ccc(c(Cl)c3)Oc3cc2cc(c3O[C@@H]2O[C@H](CO)[C@@H](O)[C@H](O)[C@H]2O)Oc2ccc(cc2Cl)[C@H]1O)N(C)C (stereo partly drawn)
0.4

----------
Tested on: Staph. aureus 503
Experiment: Minimum bacteriostatic inhibitory concentration, Agar dilution method
Format: cell-based
quantity_measured: Minimum bacteriostatic inhibitory concentration (micrograms per milliliter)
Numbers only; they are read as micrograms per milliliter.

compound: CNC(CC(C)C)C(=O)NC1C(=O)NC(CC(N)=O)C(=O)NC2C(=O)NC3C(=O)NC(C(=O)NC(C(=O)O)c4cc(O)cc(O)c4-c4cc3ccc4O)C(OC3CC4(C)NC(=O)NC4(O)C(C)O3)c3ccc(c(Cl)c3)Oc3cc2cc(c3OC2OC(CO)C(O)C(O)C2O)Oc2ccc(cc2Cl)C1O (stereo not drawn)
result_units: micrograms per milliliter
numeric_result: 1.5
--
compound: CNC(CC(C)C)C(=O)NC1C(=O)NC(CC(N)=O)C(=O)NC2C(=O)NC3C(=O)NC(C(=O)NC(C(=O)O)c4cc(O)cc(O)c4-c4cc3ccc4O)C(OC3CC(C)(N)C(=O)C(C)O3)c3ccc(c(Cl)c3)Oc3cc2cc(c3O)Oc2ccc(cc2Cl)C1O (stereo not drawn)
result_units: micrograms per milliliter
numeric_result: 0.1

Now take the following compound into account.
Find the recorded Minimum bacteriostatic inhibitory concentration belonging to CC(C)CC(N)C(=O)NC1C(=O)NC(CC(N)=O)C(=O)NC2C(=O)NC3C(=O)NC(C(=O)NC(C(=O)O)c4cc(O)cc(O)c4-c4cc3ccc4O)C(OC3CC(C)(N)C(=O)C(C)O3)c3ccc(c(Cl)c3)Oc3cc2cc(c3O)Oc2ccc(cc2Cl)C1O (stereo not drawn) and report it.
0.1

----------
System: Peptostrept. anaerob. 932
Assay: Minimum bacteriostatic inhibitory concentration, Agar dilution method
Assay type: cell-based
quantity_measured: Minimum bacteriostatic inhibitory concentration (micrograms per milliliter)
Expressed in micrograms per milliliter, but write only the number.

Illustrative cases are given below, each with its answer.
molecule: CC(C)C[C@H](C(=O)N[C@H]1C(=O)NC(CC(N)=O)C(=O)N[C@H]2C(=O)N[C@H]3C(=O)N[C@H](C(=O)N[C@@H](C(=O)O)c4cc(O)cc(O)c4-c4cc3ccc4O)[C@H](O[C@H]3C[C@](C)(N)C(=O)[C@H](C)O3)c3ccc(c(Cl)c3)Oc3cc2cc(c3O[C@@H]2O[C@H](CO)[C@@H](O)[C@H](O)[C@H]2O)Oc2ccc(cc2Cl)[C@H]1O)N(C)C (stereo partly drawn)
numeric_result: 0.8

molecule: CNC(CC(C)C)C(=O)NC1C(=O)NC(CC(N)=O)C(=O)NC2C(=O)NC3C(=O)NC(C(=O)NC(C(=O)O)c4cc(O)cc(O)c4-c4cc3ccc4O)C(OC3CC4(C)NC(=O)NC4(O)C(C)O3)c3ccc(c(Cl)c3)Oc3cc2cc(c3OC2OC(CO)C(O)C(O)C2O)Oc2ccc(cc2Cl)C1O (stereo not drawn)
numeric_result: 6.2

Consider the record given below.
So what does the record say about Minimum bacteriostatic inhibitory concentration for CC(C)CC(N)C(=O)NC1C(=O)NC(CC(N)=O)C(=O)NC2C(=O)NC3C(=O)NC(C(=O)NC(C(=O)O)c4cc(O)cc(O)c4-c4cc3ccc4O)C(OC3CC(C)(N)C(=O)C(C)O3)c3ccc(c(Cl)c3)Oc3cc2cc(c3O)Oc2ccc(cc2Cl)C1O (stereo not drawn) ?
0.2

These entries and their values trace back to patent US5721208A.
